This listing pairs compounds with measured percentage inhibition of DPPH.
- Protocol Text: DPPH antioxidant
- Run Conditions: conc 1 μg/mL

[
  {
    "Compound": "OC1(Cc2ccccc2)c2ccccc2Sc2ccccc21",
    "Unit Annotation": "%",
    "percentage inhibition of DPPH": 0.26
  },
  {
    "Compound": "N[C@@H](CSC1(c2ccccc2)c2ccccc2Sc2ccccc21)C(=O)O",
    "Unit Annotation": "%",
    "percentage inhibition of DPPH": 22.0
  },
  {
    "Compound": "OC1(Cc2ccccc2)c2ccccc2Oc2ccccc21",
    "Unit Annotation": "%",
    "percentage inhibition of DPPH": 0.31
  },
  {
    "Compound": "N[C@@H](CSC1(c2ccccc2)c2ccccc2Oc2ccccc21)C(=O)O",
    "Unit Annotation": "%",
    "percentage inhibition of DPPH": 18.0
  },
  {
    "Compound": "Cc1c(C)c2c(c(C)c1O)CCC(C)(C(=O)O)O2 (stereo not drawn) [Trolox, reference compound]",
    "Unit Annotation": "%",
    "percentage inhibition of DPPH": 37
  },
  {
    "Compound": "N[C@@H](CSC1(Cc2ccccc2)c2ccccc2Oc2ccccc21)C(=O)O",
    "Unit Annotation": "%",
    "percentage inhibition of DPPH": 5.0
  }
]

###

- Assay Target: COX-1 (Homo sapiens, UniProt P23219)
- Sequence (P23219 24-599): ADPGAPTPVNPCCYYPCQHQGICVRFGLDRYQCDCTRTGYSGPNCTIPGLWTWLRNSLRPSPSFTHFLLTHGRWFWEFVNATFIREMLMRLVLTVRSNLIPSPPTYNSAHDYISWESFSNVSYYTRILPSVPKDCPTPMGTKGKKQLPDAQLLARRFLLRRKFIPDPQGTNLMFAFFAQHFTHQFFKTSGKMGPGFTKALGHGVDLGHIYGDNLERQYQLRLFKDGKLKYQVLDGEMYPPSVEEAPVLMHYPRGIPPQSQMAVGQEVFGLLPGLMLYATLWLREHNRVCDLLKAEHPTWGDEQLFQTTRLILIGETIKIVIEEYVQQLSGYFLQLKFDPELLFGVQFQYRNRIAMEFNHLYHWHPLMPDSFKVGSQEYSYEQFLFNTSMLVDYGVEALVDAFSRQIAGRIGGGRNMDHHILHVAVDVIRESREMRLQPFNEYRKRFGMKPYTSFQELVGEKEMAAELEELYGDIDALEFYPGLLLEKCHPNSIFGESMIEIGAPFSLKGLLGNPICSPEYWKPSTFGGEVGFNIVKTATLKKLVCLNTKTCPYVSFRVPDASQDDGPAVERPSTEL
- Protocol Text: biochemical
pIC50: −log10 of the molar value.
Reported Metric: pIC50

[
  {
    "Molecule": "OC1(Cc2ccccc2)c2ccccc2Sc2ccccc21 [Compound 2, 9-Benzyl-9H-thioxanthen-9-ol]",
    "Readout Value": 8.25
  },
  {
    "Molecule": "N[C@@H](CSC1(c2ccccc2)c2ccccc2Oc2ccccc21)C(=O)O [Compound 6, S-(9-phenyl-9H-xanthen-9-yl)-L-cysteine]",
    "Readout Value": 7.37
  },
  {
    "Molecule": "N[C@@H](CSC1(c2ccccc2)c2ccccc2Sc2ccccc21)C(=O)O [Compound 7]",
    "Readout Value": 7.78
  }
]

###

- Protocol Text: DPPH antioxidant
- Run Conditions: conc 3 μg/mL
Could you label it class 1 if measured percentage inhibition of DPPH is 20% or higher, and class 0 otherwise?

[
  {
    "Molecule": "N[C@@H](CSC1(c2ccccc2)c2ccccc2Oc2ccccc21)C(=O)O [Compound 6, S-(9-phenyl-9H-xanthen-9-yl)-L-cysteine]",
    "Class Label": "class 1"
  },
  {
    "Molecule": "Cc1c(C)c2c(c(C)c1O)CCC(C)(C(=O)O)O2 (stereo not drawn) [Trolox, reference compound]",
    "Class Label": "class 1"
  },
  {
    "Molecule": "N[C@@H](CSC1(Cc2ccccc2)c2ccccc2Oc2ccccc21)C(=O)O [Compound 5, S-(9-benzyl-9H-xanthen-9-yl)-L-cysteine]",
    "Class Label": "class 0"
  },
  {
    "Molecule": "N[C@@H](CSC1(c2ccccc2)c2ccccc2Sc2ccccc21)C(=O)O [Compound 7]",
    "Class Label": "class 1"
  },
  {
    "Molecule": "OC1(Cc2ccccc2)c2ccccc2Oc2ccccc21 [Compound 1, 9-Benzyl-9H-xanthen-9-ol]",
    "Class Label": "class 0"
  },
  {
    "Molecule": "OC1(Cc2ccccc2)c2ccccc2Sc2ccccc21 [Compound 2, 9-Benzyl-9H-thioxanthen-9-ol]",
    "Class Label": "class 0"
  }
]
